Test system: SK-MEL-28
Experiment: NCI tumour cell line growth inhibition, 48 h
Active and inactive are the calls of the source. Cut-off read from the data, not from the text of the source: active = GI50 up to about 1.1 µM and inactive = higher.
GI50: recorded values

- molecule: "N=C(N)Nc1nc2cc([N+](=O)[O-])ccc2[nH]1"
  GI50: "> 100 µM (inactive)"
- molecule: "O=C1C=CC2(O[C@H](c3ccccc3)[C@@H](c3ccccc3)O2)[C@H](Sc2ccccc2O)C1"
  GI50: "1.36 µM (inactive)"
- molecule: "O=C1OC(c2ccccc2)=N/C1=C/NC(CS)C(=O)O (stereo unspecified)"
  GI50: "> 100 µM (inactive)"
- molecule: "Cc1ccc(SCC(OCn2cnc3c(N)ncnc32)[C@H](C)F)cc1 (stereo partly specified)"
  GI50: "> 100 µM (inactive)"
- molecule: "O=C(O)Cc1ccccc1CCc1ccccc1Cl"
  GI50: "> 100 µM (inactive)"
- molecule: "CC1=CC2=C(C=O)C(=O)[C@](C)(O)[C@@H](O)C2=CO1"
  GI50: "25.2 µM (inactive)"
- molecule: "Cc1c(C(=O)Nc2ccccc2)nnn1-c1ccnc2cc(C(F)(F)F)ccc12"
  GI50: "> 100 µM (inactive)"
- molecule: "CO/N=C(/C(=O)N(C(=O)/C(=N/OC)c1csc(NC(c2ccccc2)(c2ccccc2)c2ccccc2)n1)n1cnn(CC(=O)OC(C)(C)C)c1=O)c1csc(NC(c2ccccc2)(c2ccccc2)c2ccccc2)n1"
  GI50: "> 10 µM (inactive)"
- molecule: "NC(=S)N/N=C/C(=C/Nc1ccccc1)[N+](=O)[O-]"
  GI50: "> 100 µM (inactive)"
- molecule: "COc1cc2c(cc1OC)C1Cc3ccccc3CN1CCC2 (stereo unspecified)"
  GI50: "> 100 µM (inactive)"
- molecule: "CCOC(=O)c1ccc(-c2cc(C)[nH]n2)[nH]1"
  GI50: "> 100 µM (inactive)"
